Cited source for all entries: paper PMC7078782

assay: Pharmacokinetic study in beagles after intramuscular injection of parecoxib; settings: beagle, dog, plasma, im, 1.33 mg/kg, Tmax, beagle plasma, after intramuscular injection of 1.33 mg/kg parecoxib, n=6, mean ± SD
measure_name: Tmax

Input line: Entry Cc1onc(-c2ccccc2)c1-c1ccc(S(N)(=O)=O)cc1 needs its Tmax filled in; supply it.
Output line: ~1.36 h

----------
experiment: Pharmacokinetic study in beagles after intramuscular injection of parecoxib; conditions: beagle, dog, plasma, im, 1.33 mg/kg, t1/2, beagle plasma, after intramuscular injection of 1.33 mg/kg parecoxib, n=6, mean ± SD
measure_name: half-life

Input line: Entry Cc1onc(-c2ccccc2)c1-c1ccc(S(N)(=O)=O)cc1 needs its half-life filled in; supply it.
Output line: ~2.27 h
